- assaySummary: Phase solubility of PM in in-situ basic salt-forming agents (arginine, meglumine)
- Assay type: physicochemical
- particulars: 8‰ (M/V) meglumine solution in UP water, aqueous with cosolvent or surfactant or cyclodextrin, thermodynamic from solid; Meglumine 8‰, API saturated; read-out: Drug concentration
Where a name gives a salt, the structure may show the parent alone.
endpointLabel: solubility thermodynamic (mg/mL)
Response body: numeric value in mg/mL, unit text excluded.

Field solubility thermodynamic (entry CN(Cc1nc2c(N3CCOCC3)nc(-c3ccc(N)cc3)nc2n1C)c1ncc(C(=O)NO)cn1 [API, purinostat mesylate] ) reads 0.46

###

- assaySummary: Phase solubility of PM in in-situ basic salt-forming agents (arginine, meglumine)
- Assay type: physicochemical
- particulars: 10‰ (M/V) meglumine solution in UP water, aqueous with cosolvent or surfactant or cyclodextrin, thermodynamic from solid; Meglumine 10‰, API saturated; read-out: Drug concentration
Structures can show the parent of a compound that is named as a salt.
endpointLabel: solubility thermodynamic (µg/mL)
Report as a plain number; the unit µg/mL is understood.

For CN(Cc1nc2c(N3CCOCC3)nc(-c3ccc(N)cc3)nc2n1C)c1ncc(C(=O)NO)cn1 [API, purinostat mesylate] the compound record lists solubility thermodynamic as 700
